Assay: Primary qHTS for delayed death inhibitors of the malarial parasite plastid, 48 hour incubation
Settings: P. falciparum luciferase growth in erythrocytes; series mostly up to 28.7 µM
Hit rate of the full screen: of about 310,000 compounds, about 18,000 (5.8%) were called active. Not shown: some 22% with an inconclusive outcome. Calls follow the shape of the dose curve; as a rule, active = well fitted inhibition curve with a large enough effect; inconclusive = small, poorly fitted or top-dose-only effect, or another doubt; inactive = no such curve, though single readings can be large or run the other way. This excerpt belongs to a sample that is enriched for actives.
Thanks in advance; please answer with one of these: active, inactive

{"compound": "O=C(/C=C/c1cccc([N+](=O)[O-])c1)OCC(=O)N1CCOCC1", "label-class": "inactive"}
{"compound": "CN1CCN(S(=O)(=O)c2cccc(C(=O)N3CCc4ccccc43)c2)CC1", "label-class": "inactive"}
{"compound": "O=C1Nc2ccc(Br)cc2/C1=N/N=C/C1=C(N2CCOCC2)C(=C\\c2ccccc2)/CC1", "label-class": "inactive"}
{"compound": "Cc1nn(-c2ccccc2)c2c1c(C)c(CCC(=O)NCC1CCCO1)c(=O)n2C (configuration not stated)", "label-class": "inactive"}
{"compound": "CC(=O)Cn1cnc2c(cnn2-c2ccccc2)c1=O", "label-class": "inactive"}
{"compound": "C(=N\\N1CCN(c2ccccn2)CC1)/C1=C(N2CCOCC2)C(=C/c2ccccc2)/CC1", "label-class": "active"}
{"compound": "COC(=O)[C@H](Cc1ccccc1)NC(=O)Nc1ccc(OC)cc1", "label-class": "inactive"}
{"compound": "NC(N)=N/N=C/c1ccc(OCc2ccc(Cl)cc2Cl)cc1", "label-class": "active"}

q: Identify the outcome logged in this assay for the compound shown: `COc1cc(NC(=O)c2ccc(-c3csc(C)n3)cc2)c(OC)cc1Cl`
a: inactive

q: Identify the outcome logged in this assay for the compound shown: `O=C(COc1coc(CN2CCN(c3ccccc3)CC2)cc1=O)Nc1ccccc1F`
a: inactive

q: Identify the outcome logged in this assay for the compound shown: `CCOc1ccc(NC(=O)NNC(=O)c2ccc(Cl)cc2Cl)cc1`
a: inactive

q: Identify the outcome logged in this assay for the compound shown: `O=C(Nc1ccncc1)c1c(F)cccc1F`
a: inactive

q: Identify the outcome logged in this assay for the compound shown: `N#C/C(=C\C1=C(N2CCOCC2)C(=C\c2ccccc2)/CC1)C(=O)Nc1ccccc1F`
a: inactive

q: Identify the outcome logged in this assay for the compound shown: `O=C(COc1coc(CN2CCN(c3ccccc3)CC2)cc1=O)N1CCc2ccccc21`
a: inactive

###

Test: Primary qHTS for delayed death inhibitors of the malarial parasite plastid, 48 hour incubation
Details: P. falciparum luciferase growth in erythrocytes; series mostly up to 28.7 µM
Screen size: about 310,000 compounds; about 18,000 (5.8%) were called active. About 22% were inconclusive and are not listed. The call rests on the fitted dose curve; in most records, active means well fitted inhibition curve with a large enough effect; inconclusive means small, poorly fitted or top-dose-only effect, or another doubt; inactive means no such curve, though single readings can be large or run the other way. Only a selection was taken, and actives are over-represented in it overall.
Thanks in advance; please answer with one of these: yes (1) = active, no (0) = inactive

Would you please look over these solved cases?
{"molecule": "CC(=O)c1ccc(Oc2cc(C)nc(-n3nc(C)cc3C)n2)cc1", "label-class": "yes (1)"}
{"molecule": "COc1ccc(O)c(/C=N/N=C/c2cccc([N+](=O)[O-])c2)c1", "label-class": "no (0)"}
{"molecule": "CN(c1ccc(O)cc1)c1nc(-c2cccnc2)cs1", "label-class": "no (0)"}

Moving on to another molecule below.
q: Identify the outcome logged in this assay for the molecule shown: `CN(CC#CCC(c1ccccc1)c1ccccc1)C(C)(C)C`
a: yes (1)
